- TARGET_OR_TEST_SYSTEM: human GPR40 (hGPR40) (Homo sapiens)
- Construct: expressed in transfected cells; doxycycline-inducible expression vector
- Sequence (O14842 whole entry): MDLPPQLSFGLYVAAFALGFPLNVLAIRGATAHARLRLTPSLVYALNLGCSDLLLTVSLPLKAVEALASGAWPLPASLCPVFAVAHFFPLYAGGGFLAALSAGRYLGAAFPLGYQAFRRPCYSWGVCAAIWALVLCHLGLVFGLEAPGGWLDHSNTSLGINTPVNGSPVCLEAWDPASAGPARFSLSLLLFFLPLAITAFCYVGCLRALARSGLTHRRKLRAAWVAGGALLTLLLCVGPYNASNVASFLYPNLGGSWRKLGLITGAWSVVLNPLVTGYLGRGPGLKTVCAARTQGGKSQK
- MEASUREMENT_PROTOCOL: Determination of intracellular Ca2+ concentration (FLIPR), cell line TXGPR40
- Assay type: cell-based
- RECORDED_CONDITIONS: TXGPR40 cells, maximum fluorescence intensity vs ligand concentration; read-out: [Ca^2+]/GPR40 pEC50 (converted)
VALUE_KIND: EC50 (µM)

# MOLECULE, TARGET_OR_TEST_SYSTEM, UNITS, NUMERIC_READOUT
data = [
    ("O=C(O)CCCc1ccc(OCCN(c2ccccc2)c2nccs2)cc1 [NCG46]", "human GPR40 (hGPR40) (Homo sapiens)", "µM", 21.4),
]

A = O=C(O)CCCc1ccc(OCCN(c2ccccc2)c2ccccn2)cc1 [NCG21]
B = O=C(O)CCc1ccc(OCCN(c2ccccc2)c2ccccn2)cc1 [NCP14]
Could you please tell me which of these two has the higher EC50: A or B ? To answer, give the label that identifies your chosen option.
A
(A: 18.6 µM, B: 9.77 µM)
